# System: MDA-MB-435
# test-method-notes: NCI tumour cell line growth inhibition, 48 h
Active and inactive are the calls of the source. Rule as the data show it: active = GI50 up to about 1.1 µM and inactive = higher.
Your response should consist of one outcome taken from yes for active, no for inactive

# compound, assigned-class
rows = [
    ("C=C(C)[C@@H]1CC[C@]2(CO)CC[C@]3(C)[C@H](CC[C@@H]4[C@@]5(C)CC[C@H](O)C(C)(C)[C@@H]5CC[C@]43C)[C@@H]12", "no"),
    ("OC(CC(O)(C(F)(F)Cl)C(F)(F)Cl)c1ccccc1 (stereo unspecified)", "yes"),
]

Given `Cc1cc(C)c(-c2no/c(=N\S(=O)(=O)c3ccc(Cl)cc3)o2)c(C)c1` , state the outcome it received in this test.
no

Given `O=C(O)Cn1ncn(NC(=O)Cc2ccccc2)c1=S` , state the outcome it received in this test.
no

Given `O=C1/C(=C\c2cccs2)Oc2ccccc21` , state the outcome it received in this test.
no

Given CC(O)[C@@]1(c2ccccc2)CC2(CCN(C)CC2)O[C@H]1C (stereo partly specified) , state the outcome it received in this test.
no

Given COc1ccc(N[S+]([O-])CCc2ccccc2)cc1 (stereo unspecified) , state the outcome it received in this test.
no
